Target: Luciferin 4-monooxygenase (Photinus pyralis) (UniProt P08659)
Sequence (P08659 whole entry, looked up): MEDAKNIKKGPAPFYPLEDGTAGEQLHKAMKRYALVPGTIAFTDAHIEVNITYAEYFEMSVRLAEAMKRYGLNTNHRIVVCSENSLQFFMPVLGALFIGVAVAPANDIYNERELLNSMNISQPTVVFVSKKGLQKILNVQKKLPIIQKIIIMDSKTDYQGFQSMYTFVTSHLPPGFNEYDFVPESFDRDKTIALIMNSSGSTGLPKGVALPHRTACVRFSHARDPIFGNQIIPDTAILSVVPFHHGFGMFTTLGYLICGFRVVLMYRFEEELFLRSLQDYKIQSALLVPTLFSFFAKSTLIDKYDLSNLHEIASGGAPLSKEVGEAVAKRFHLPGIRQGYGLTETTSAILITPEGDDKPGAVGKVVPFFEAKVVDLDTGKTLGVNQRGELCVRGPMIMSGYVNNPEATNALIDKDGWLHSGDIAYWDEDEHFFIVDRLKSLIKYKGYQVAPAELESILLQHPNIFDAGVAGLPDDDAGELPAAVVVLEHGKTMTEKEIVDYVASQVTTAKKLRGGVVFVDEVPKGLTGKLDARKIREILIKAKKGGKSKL
Assay: CCTE_Simmons_QuantiLum_inhib_2: CCTE's Firefly Luciferase Inhibition Assay, Simmons Lab (AID 2283767);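 on AC50: potency for inhibitors that lower luciferase luminescence relative to DMSO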
Results filed as inconclusive are left out. The source made the active and inactive calls. How the source made its calls: active means hit-call score of the fitted dose curve at least 0.9, where 1 is the maximum; inconclusive means response in the unintended direction; inactive means score below 0.9.
reported_property: AC50

# example entries with known answers
COC(=O)c1ccccc1C; inactive
CCc1occc(=O)c1O; inactive
C/C=C/C=C/CCCCCCCO; inactive
CCCCC/C=C\C/C=C\CCCCCCCC(=O)O; inactive
COc1ccc(-c2coc3cc(O)cc(O)c3c2=O)cc1; 9.08 µM (active)

Would you mind listing AC50 for each of the following molecules?
1. CN(C)c1ccc2nc3ccc(=[N+](C)C)cc-3sc2c1
2. CCCCC1C(=O)N(c2ccccc2)N(c2ccccc2)C1=O
3. CCCCCCOc1ccc(N)cc1

(A)
["0.676 µM (active)", "inactive", "28.7 µM (active)"]

Would you mind listing AC50 for each of the following molecules?
1. O=S(=O)(O)c1ccc(N=Nc2c(O)ccc3ccccc23)cc1
2. CC(CCC(=O)O)(c1ccc(O)cc1)c1ccc(O)cc1
3. CC1=NN(c2ccc(S(=O)(=O)O)cc2)C(=O)C1N=Nc1ccccc1 (centres undefined)
4. CCCCCCCOC(=O)c1ccc(O)cc1
5. CC(C)(c1ccccc1)c1ccc(Nc2ccc(C(C)(C)c3ccccc3)cc2)cc1
6. c1ccc(Nc2cccc3ccccc23)cc1

(A)
1. 24.3 µM (active)
2. inactive
3. inactive
4. 76.7 µM (active)
5. 53.8 µM (active)
6. 53.8 µM (active)

----------
Read-out: Monocyte Chemoattractant Protein-1 (MCP1), CCL2 (gene 6347)
Experiment: BSK_CASM3C_MCP1: BioMAP Diversity Plus: CASM3C Assay for Monocyte Chemoattractant Protein-1 (MCP1) Biomarker Activity (AID 2283046);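 further: MCP-1 level quantified by ELISA 24 h after dosing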
Conditions: primary human coronary artery smooth muscle cells; actives raise or lower the signal
Calls of active or inactive are those of the source. Rule for the calls: active = hit-call score of the fitted dose curve at least 0.9, where 1 is the maximum; inactive = score below 0.9.
Outcomes you can answer with include only these: 1 = active, 0 = inactive

Use these answered entries as a reference point.
C=CC(=O)NCOCCCC; 0
CC(C)C(=O)OCCc1ccccc1; 0
c1ccc2c(c1)[nH]c1ccccc12; 0

(Q) Record lookup: outcome of this test for Oc1ccccc1Cc1ccccc1O ?
(A) 0

(Q) Record lookup: outcome of this test for C=CC(=O)OCCCCCCCC(C)C ?
(A) 0

(Q) Record lookup: outcome of this test for CCN1CN(CC)CN(CC)C1 ?
(A) 0

----------
Test system: IYD (gene 389434)
Assay: CCTE_GLTED_hIYD: CCTE's human Iodotyrosine Deiodinase (xIYD) Inhibition Assay, Great Lakes Toxicology and Ecology Division (GLTED) Lab (AID 2284317);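 further: cell-free human IYD enzyme made in baculovirus insect cells; iodide freed from monoiodotyrosine measured by cerium arsenite color change at 420 nm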
Activity calls are given as the source filed them. Rule for the calls: active = hit-call score of the fitted dose curve at least 0.9, where 1 is the maximum; inconclusive = response in the unintended direction; inactive = score below 0.9.
Outcomes you can answer with include only these: class 1 = active, class 0 = inactive

O=C(Nc1ccccc1)c1cc(Cl)ccc1O; class 0
CCCCC/C=C\C/C=C\CCCCCCCC(=O)O; class 1
CCCCCCCCCCCCc1ccc(O)cc1; class 1
O=c1c(O)c(-c2ccc(O)cc2O)oc2cc(O)cc(O)c12; class 1
CN(C)c1ccc2nc3ccc(=[N+](C)C)cc-3sc2c1; class 1

For the next question, use this molecule.
(Q) Record lookup: outcome of this test for CCCCCCCOC(=O)c1ccc(O)cc1 ?
(A) class 1

----------
Assay: ATG_ERE_CIS: Attagene CIS-FACTORIAL HepG2 Assay for Estrogen Response Element (ERE) (AID 2282940)
Conditions: HepG2 ERE cis-reporter, Attagene RNA transcript; actives raise or lower the signal
The source made the active and inactive calls. Rule for the calls: active = hit-call score of the fitted dose curve at least 0.9, where 1 is the maximum; inactive = score below 0.9.
Outcomes you can answer with include only these: Yes = active, No = inactive

Use these answered entries as a reference point.
CCCCCC[C@@H](O)C/C=C\CCCCCCCC(=O)OCC(O)CO (stereo not given in full); No
CCCCC(C=O)CC (stereo not given); No
Cc1c(O)cccc1O; Yes
CCCCCCCCCCCCCC(=O)OC(C)C; No
CN1CCN(C)CC1; No

(Q) Record lookup: outcome of this test for Oc1ccc(/C=C/c2cc(O)cc(O)c2)cc1 ?
(A) Yes

(Q) Record lookup: outcome of this test for C=CC(=O)OCCCCCCOC(=O)C=C ?
(A) No

(Q) Record lookup: outcome of this test for Oc1c(Cl)cc(Cl)c(Cl)c1Cl ?
(A) No

(Q) Record lookup: outcome of this test for CCCCOC(=O)C(C)CC (stereo not given) ?
(A) No

(Q) Record lookup: outcome of this test for Fc1ccc(Br)cc1 ?
(A) Yes

Sourced from PubChem BioAssay (EPA / NIEHS)
